Origin of values: patent US8975259B2

Each entry below carries its reported % of Wild-Type Signal.
Biological target: Gβ1γ2 (Gβ1 mutants) (UniProt P54311+P63212, K57A)
Construct: made in house; host or cells: Sf9 insect cells (baculovirus), partially purified via (His)6-Gαi1 on Ni-NTA
Assay: Phage ELISA: binding of peptide-displaying phage to wild-type or alanine-substituted b-βγ
Set-up: species or system rat
Settings: Gβ1 Lys57Ala; mean ± SD
Record the value in %, omitting the unit from your answer.

Examples from the recorded data:
SCARFFGTPGCT [Compound C8] : 14.2
SCEKRYGIEFCT [Compound C4] : −0.2
SCEKRLGVRSCT (phage-displayed) [Compound C5] : 5.6

Observed % of Wild-Type Signal on Gβ1γ2 (Gβ1 mutants) (UniProt P54311+P63212, K57A), entry SCGHGLKVQSTIGACA [Compound 3C] , equals 3.6

Response field % of Wild-Type Signal (Gβ1γ2 (Gβ1 mutants) (UniProt P54311+P63212, K57A)) for item LCSKAYLLLGQTC [Compound 2F] : −4.5
